Numbers sourced from patent US10351519B2.

Tested on: ICR mice
Experiment summary: Anti-epilepsy activity, MES test, mouse
Assay type: in vivo

| Compound | Measurement target | MES test (po) Peak time / h |
| --- | --- | --- |
| C[C@H](OS(N)(=O)=O)[C@@H](O)c1cccc(Cl)c1Cl [Example 9] | ICR mice | 4 |
| COCO[C@@H](c1sc(Cl)nc1Cl)[C@H](C)OS(N)(=O)=O [Example 103] | ICR mice | 2 |
| CC(C)[C@H](OS(N)(=O)=O)[C@@H](O)c1ccccc1Cl [Example 13] | ICR mice | 1 |
| C[C@H](OS(N)(=O)=O)[C@@H](O)c1ccccc1Cl [Example 1] | ICR mice | 2 |
| C[C@@H](OS(N)(=O)=O)[C@H](O)c1ccccc1F [Example 18] | ICR mice | 1 |
| C[C@H](OS(N)(=O)=O)[C@@H](O)c1ccccc1I [Example 19] | ICR mice | 1 |
| C[C@@H](OS(N)(=O)=O)[C@H](O)c1cccc(Cl)c1Cl [Example 10] | ICR mice | 1 |
| COCO[C@@H](c1ccccc1I)[C@H](C)OS(N)(=O)=O [Example 74] | ICR mice | 0.5 |
| COCO[C@@H](c1c(F)cccc1Cl)[C@H](C)OS(N)(=O)=O [Example 61] | ICR mice | 2 |
| CC[C@H](OS(N)(=O)=O)[C@@H](O)c1ccccc1Cl [Example 11] | ICR mice | 2 |
| COCO[C@H](c1ccccc1Cl)[C@@H](C)OS(=O)(=O)NC1CC1 [Example 79] | ICR mice | 1 |
| C[C@@H](OS(N)(=O)=O)[C@H](O)c1c(Cl)cccc1Cl [Example 8] | ICR mice | 2 |
| C[C@H](OS(N)(=O)=O)[C@@H](O)c1c(Cl)cccc1Cl [Example 7] | ICR mice | 1 |
| C[C@@H](OS(N)(=O)=O)[C@H](O)c1ccccc1Cl [Example 2] | ICR mice | 2 |
| C[C@H](OS(N)(=O)=O)[C@@H](O)c1sc(Cl)nc1Cl [Example 102] | ICR mice | 2 |
| CC(C)NS(=O)(=O)O[C@H](C)[C@H](O)c1ccccc1Cl [Example 38] | ICR mice | 2 |
| CC(C)[C@@H](OS(N)(=O)=O)[C@H](O)c1ccccc1Cl [Example 14] | ICR mice | 1 |
| COCO[C@@H](c1cccc(Cl)c1Cl)[C@H](C)OS(N)(=O)=O [Example 53] | ICR mice | 2 |
| COCO[C@H](c1ccccc1F)[C@@H](C)OS(N)(=O)=O [Example 73] | ICR mice | 1 |
